measured target: Cellular tumor antigen p53 (Homo sapiens) (UniProt P04637)
Sequence (P04637 whole entry, looked up): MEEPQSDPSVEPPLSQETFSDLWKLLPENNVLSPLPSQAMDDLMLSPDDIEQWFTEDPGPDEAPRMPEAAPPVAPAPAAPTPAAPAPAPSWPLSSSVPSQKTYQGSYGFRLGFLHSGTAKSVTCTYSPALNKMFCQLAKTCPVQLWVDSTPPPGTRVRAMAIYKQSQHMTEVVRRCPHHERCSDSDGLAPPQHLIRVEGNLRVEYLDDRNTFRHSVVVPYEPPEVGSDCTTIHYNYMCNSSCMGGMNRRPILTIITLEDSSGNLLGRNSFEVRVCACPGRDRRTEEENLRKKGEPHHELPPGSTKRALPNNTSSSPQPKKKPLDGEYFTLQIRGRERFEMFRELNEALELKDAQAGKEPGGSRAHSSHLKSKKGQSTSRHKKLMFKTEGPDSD
test name: Primary qHTS for small molecule compounds that upregulate eGFP-tagged delta133p53alpha (in N-terminal) cells. (AID 2060322);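 further: cells pre-induced with doxycycline then dosed without doxycycline; series mostly up to about 56 µM; 0% = DMSO vehicle and 100% = reference activator; nearly all actives have a fitted effect of over 75% in size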
protocol conditions: NCI-H358 eGFP-delta133p53alpha fluorescence, 24 h; hits give high values
Results filed as inconclusive are left out.
The entries below are paired with their reported activation.
Write it as a number; the unit % goes unstated.

O=C(Nc1ccc(S(=O)(=O)Nc2ccccc2Cl)c(Cl)c1)c1ccccn1: 15.8

Asked: Any idea what activation was measured for CC1=CC(=O)[C@H]2C(C)(C)CCC[C@]2(C)[C@@]1(O)CO ?
Given back: -29

Asked: Any idea what activation was measured for CN1CCc2ccccc2Cc2[nH]c3ccccc3c2CC1 ?
Given back: -5.31

Asked: Any idea what activation was measured for CCCCCC(=O)O[C@]1(C(C)=O)CC[C@H]2[C@@H]3CCC4=CC(=O)CC[C@]4(C)[C@H]3CC[C@@]21C ?
Given back: 23.2

Asked: Any idea what activation was measured for C/C=C1\[C@H](O[C@@H]2O[C@H](CO)[C@@H](O)[C@H](O)[C@H]2O)OC=C(C(=O)OC)[C@H]1CC(=O)O ?
Given back: 3.82

Asked: Any idea what activation was measured for CCC(C)/C=C(C)/C=C/C1=CC2=C(Cl)C(=O)C(C)(OC(C)=O)C(=O)C2=CN1C(CC(=O)O)C(=O)O (centres undefined) ?
Given back: 9.82

Asked: Any idea what activation was measured for CCC(C)/C=C(C)/C=C/C1=CC2=C(Cl)C(=O)C(C)(OC(C)=O)C(=O)C2=CN1C1CCCCN(C(CCC(N)=O)C(=O)O)C1=O (centres undefined) ?
Given back: 2.68
